B1: ZNF263 (parent)
chain: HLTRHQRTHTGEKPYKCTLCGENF

Variants of: B1
experiment description: protein stability index of a GFP-peptide fusion (GPS, HEK-293T) (PSI 1-6); higher = more stable;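 note: lentivirally expressed fusions sorted by FACS into six bins by GFP to DsRed ratio, PSI derived from sequencing read proportions per bin multiplied by bin number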
condition context: c terminus: a fixed tail appended
Label 1.0 for high-side protein stability index (at or above 3) and 0.0 for low-side protein stability index (below it).

Example results:
>>> df
   mutation_descriptor  label_value
0                 T10R          1.0
1                 K13Y          0.0
2                  T3P          0.0
3                 C17E          1.0
4                  H5D          0.0

Req: Does the reported protein stability index for C20P fall at or above the 3 mark?
Resp: 0.0

Req: Does the reported protein stability index for H5S fall at or above the 3 mark?
Resp: 1.0

Req: Does the reported protein stability index for K16S fall at or above the 3 mark?
Resp: 1.0

Req: Does the reported protein stability index for K13D fall at or above the 3 mark?
Resp: 0.0

Req: Does the reported protein stability index for P14V fall at or above the 3 mark?
Resp: 0.0
